Molecular target: T1, GDF-7 (R&D SYSTEMS)
T1 sequence (Q7Z4P5 322-450, species assumed, looked up): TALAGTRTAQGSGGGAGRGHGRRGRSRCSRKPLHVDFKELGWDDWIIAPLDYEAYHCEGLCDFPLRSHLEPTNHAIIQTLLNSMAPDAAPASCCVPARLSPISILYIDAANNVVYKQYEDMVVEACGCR
Assay: GDF-7 capture on peptide-coated sutures; anti-GDF-7 antibody/AP, pNPP read-out; relative EC50; lower limit told of the whole group
Square brackets hold non-standard residues; d marks the D form. Ends that are not written are not given here. * marks the point of attachment. Biotin = O=C1N[C@H]2[C@H](CS[C@H]2CCCCC(=O)*)N1; P10 = 10 unit polyethylene glycol polymer
observed-property: EC50

binder	observed-property	test-value
[code s][code s]GGVGGWALFETLRGKEV[code s][code r][P10]SWWGFWNGSAAPVWSRGSSGK(Biotin)-NH2 (not fully specified; printed as ssGGVGGWALFETLRGKEVsr-P10-SWWGFWNGSAAPVWSR-GSSGK-B-NH2) [SEQ ID NO 153]	EC50	> 20 nM

--- query ---
Fill in reported EC50 for this entry: [code s][code s]GGVGGWALFETLRGKEV[code s][code r][P10]YFRAFRKFVKPFKRAFKGSSGK(Biotin)-NH2 (not fully specified; printed as ssGGVGGWALFETLRGKEVsr-P10-YFRAFRKFVKPFKRAFK-GSSGK-B-NH2) [SEQ ID NO 149]
> 20 nM
